- Test system: Rattus norvegicus
- ASSAY COMMENT: Antiinflammatory activity in Sprague-Dawley rat assessed as inhibition of carrageenan-induced paw edema at 50 mg/kg, ip treated 60 mins before carrageenan challenge measured after 180 mins
- Format: functional
- CONDITION NOTES: route intraperitoneal
EXPERIMENTAL ENDPOINT: inhibition in vivo at 50 mg/kg (%)
Quick note: give the figure in %, leave out the unit.

INSERT INTO measurements (smiles_entry, tested_on, experimental_endpoint, measured_number) VALUES
  ('O=c1c2ccccc2nc2c3c(-c4ccc(Cl)cc4)csc3ncn12', 'Rattus norvegicus', 'inhibition in vivo at 50 mg/kg', 57);

Prompt: // lookup inhibition in vivo at 50 mg/kg | system=Rattus norvegicus | key= `COc1ccc(-c2cc(-c3cccc([N+](=O)[O-])c3)c3c(ncn4c(=O)c5ccccc5nc34)n2)cc1`
Response: 16

Prompt: // lookup inhibition in vivo at 50 mg/kg | system=Rattus norvegicus | key= `COc1ccc(-c2cc(-c3ccccc3)nc3ncn4c(=O)c5cc(Br)ccc5nc4c23)cc1`
Response: 44

Prompt: // lookup inhibition in vivo at 50 mg/kg | system=Rattus norvegicus | key= `COc1ccc(-c2csc3ncn4c(=O)c5cc(Br)cc(Br)c5nc4c23)cc1`
Response: 31

Prompt: // lookup inhibition in vivo at 50 mg/kg | system=Rattus norvegicus | key= `Cc1ccc(-c2cc(-c3ccc(Cl)cc3)c3c(ncn4c(=O)c5ccccc5nc34)n2)cc1`
Response: 53

Prompt: // lookup inhibition in vivo at 50 mg/kg | system=Rattus norvegicus | key= `O=c1c2cc(Br)ccc2nc2c3c(-c4ccccc4)cc(-c4ccc(Cl)cc4)nc3ncn12`
Response: 80

Prompt: // lookup inhibition in vivo at 50 mg/kg | system=Rattus norvegicus | key= `COc1ccc(-c2cc(-c3cccc([N+](=O)[O-])c3)c3c(ncn4c(=O)c5cc(Br)ccc5nc34)n2)cc1`
Response: 30

Prompt: // lookup inhibition in vivo at 50 mg/kg | system=Rattus norvegicus | key= `O=c1c2cc(Br)cc(Br)c2nc2c3c(-c4ccc([N+](=O)[O-])cc4)cc(-c4ccc([N+](=O)[O-])cc4)nc3ncn12`
Response: 56

Prompt: // lookup inhibition in vivo at 50 mg/kg | system=Rattus norvegicus | key= `Cc1ccc(-c2cc(-c3ccc(Cl)cc3)c3c(ncn4c(=O)c5cc(Br)ccc5nc34)n2)cc1`
Response: 89

Prompt: // lookup inhibition in vivo at 50 mg/kg | system=Rattus norvegicus | key= `Cc1ccc(-c2csc3ncn4c(=O)c5ccccc5nc4c23)cc1`
Response: 68

Prompt: // lookup inhibition in vivo at 50 mg/kg | system=Rattus norvegicus | key= `O=c1c2cc(Br)ccc2nc2c3c(-c4ccc(Cl)cc4)csc3ncn12`
Response: 50

Prompt: // lookup inhibition in vivo at 50 mg/kg | system=Rattus norvegicus | key= `Cc1ccc(-c2cc(-c3ccccc3)nc3ncn4c(=O)c5ccccc5nc4c23)cc1`
Response: 20

Prompt: // lookup inhibition in vivo at 50 mg/kg | system=Rattus norvegicus | key= `COc1ccc(-c2csc3ncn4c(=O)c5ccccc5nc4c23)cc1`
Response: 74

Prompt: // lookup inhibition in vivo at 50 mg/kg | system=Rattus norvegicus | key= `COc1ccc(-c2cc(-c3cccc([N+](=O)[O-])c3)c3c(ncn4c(=O)c5cc(Br)cc(Br)c5nc34)n2)cc1`
Response: 78

Prompt: // lookup inhibition in vivo at 50 mg/kg | system=Rattus norvegicus | key= `COc1ccc(-c2cc(-c3ccccc3)nc3ncn4c(=O)c5ccccc5nc4c23)cc1`
Response: 22

Prompt: // lookup inhibition in vivo at 50 mg/kg | system=Rattus norvegicus | key= `Cc1ccc(-c2csc3ncn4c(=O)c5cc(Br)ccc5nc4c23)cc1`
Response: 56

Prompt: // lookup inhibition in vivo at 50 mg/kg | system=Rattus norvegicus | key= `COc1ccc2c(c1)c(CC(=O)O)c(C)n2C(=O)c1ccc(Cl)cc1`
Response: 83

Prompt: // lookup inhibition in vivo at 50 mg/kg | system=Rattus norvegicus | key= `Cc1ccc(-c2csc3ncn4c(=O)c5cc(Br)cc(Br)c5nc4c23)cc1`
Response: 37

Prompt: // lookup inhibition in vivo at 50 mg/kg | system=Rattus norvegicus | key= `Cc1ccc(-c2cc(Cc3ccco3)c3c(ncn4c(=O)c5cc(Br)ccc5nc34)n2)cc1`
Response: 41
